- Test system: KB-3-1
- protocolNotes: Cytotoxic Profiling of Annotated Libraries Using Quantitative High-Throughput Screening (AID 1296008); also: nearly all actives have a fitted effect of over 60% in size
- particulars: Five cell lines viability, CellTiter-Glo ATP luminescence, 48-72 h
Records with an inconclusive call do not appear. Calls of active or inactive are those of the source. Calls follow the shape of the dose curve; as a rule, active = well fitted inhibition curve with a large enough effect; inconclusive = small, poorly fitted or top-dose-only effect; inactive = flat fitted curve, though single readings scatter.

{"compound": "C=C(CO)C(=O)O[C@H]1C[C@@]23O[C@@H]2CC/C(=C/[C@H]2OC(=O)C(=C)[C@H]12)CO[C@H]3O", "outcome": "inactive"}
{"compound": "CC(C)=CCC(O)[C@](C)(O)C1[C@H](O)C[C@@]2(C)C3CC=C4C(C[C@H](O)[C@@H](O[C@@H]5O[C@H](CO)[C@@H](O)[C@H](O)[C@H]5O)C4(C)C)[C@]3(C)C(=O)C[C@]12C (stereo partly drawn)", "outcome": "inactive"}
{"compound": "CC(=O)OC12CC(C)C(OC(=O)c3ccccc3)C1/C=C(/C)C(OC(=O)c1ccccc1)CC(=O)C(C)(C)/C=C/C(C)C2=O (stereo not drawn)", "outcome": "inactive"}

====

- Test system: CAOV3
- protocolNotes: Primary qHTS to identify gynecologic anti-cancer compounds using libraries of approved drugs and bioactive compounds (AID 1345084); also: % is scaled to controls: 0 for no effect and ±100 for the full control effect; nearly all actives have a fitted effect of over 55% in size
- particulars: Gynecologic cancer cell panel viability, ATPlite luminescence, 48 h; series mostly up to 57.5 µM
Results filed as inconclusive are left out. The source made the active and inactive calls. Calls follow the shape of the dose curve; as a rule, active = well fitted cell-killing curve with a large enough effect; inconclusive = small, poorly fitted or top-dose-only effect, or effect the other way; inactive = flat fitted curve, though single readings scatter.
measure: activity change, negative = cytotoxicity

Example entries and their recorded answers appear below.
{"molecule": "C[C@H]1CC[C@@]2(OC1)O[C@H]1CC3C4CC[C@H]5C[C@@H](O[C@@H]6O[C@H](CO)[C@H](O[C@@H]7O[C@H](CO)[C@@H](O)[C@H](O[C@@H]8OC[C@@H](O)[C@H](O)[C@H]8O)[C@H]7O[C@@H]7O[C@H](CO)[C@@H](O)[C@H](O)[C@H]7O)[C@H](O)[C@H]6O)[C@H](O)C[C@]5(C)C4=CC(=O)[C@]3(C)[C@H]1[C@@H]2C (some centres not stated)", "activity change, negative = cytotoxicity": "5.57% [at 11.6 µM] (inactive)"}
{"molecule": "CC1OC(OC2CCC3(C)C(CCC4(C)C3C=CC35OCC6(CCC(C)(C)CC63)CCC45C)C2(C)CO)C(OC2OC(CO)C(O)C(O)C2O)C(O)C1OC1OC(CO)C(O)C(O)C1O (configuration not stated)", "activity change, negative = cytotoxicity": "14% [at 11.6 µM] (inactive)"}
{"molecule": "CC(=O)/C=C/C1(O)C(C)=CC(=O)CC1(C)C (configuration not stated)", "activity change, negative = cytotoxicity": "inactive"}
{"molecule": "CCOc1ccc(-c2nn3ncccc3c2-c2ccc(S(C)(=O)=O)cc2)cc1", "activity change, negative = cytotoxicity": "inactive"}

**Query** Observed activity change, negative = cytotoxicity on CAOV3 for C[C@@H]1CCC2C(C)(C)[C@H](O)[C@H](O)C[C@]2(C)[C@@]12Cc1c(O)cc3c(c1O2)CN(CCCC(=O)O)C3=O (some centres not stated) , please.
**Result** inactive

**Query** Observed activity change, negative = cytotoxicity on CAOV3 for "CC(=O)OC[C@]12[C@@H](OC(=O)c3ccoc3)C[C@@H]3[C@@H](OC(C)=O)[C@]1(OC3(C)C)[C@@](C)(O)C[C@H](OC(=O)c1ccoc1)[C@@H]2OC(=O)c1ccoc1" , please.
**Result** inactive

====

- assayedSystem: Phospholipid hydroperoxide glutathione peroxidase GPX4 (Homo sapiens) (UniProt P36969)
- Sequence (P36969 whole entry, looked up): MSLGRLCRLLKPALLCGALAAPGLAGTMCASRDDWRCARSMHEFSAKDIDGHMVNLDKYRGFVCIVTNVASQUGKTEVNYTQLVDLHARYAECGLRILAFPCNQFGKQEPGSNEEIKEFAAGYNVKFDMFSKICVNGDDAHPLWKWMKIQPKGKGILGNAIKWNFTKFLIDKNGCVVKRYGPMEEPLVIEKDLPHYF
- protocolNotes: Primary qHTS Assay for Inhibitors of Recombinant Selenoprotein Glutathione Peroxidase 4 (GPX4) (AID 1845192); also: nearly all actives have a fitted effect of over 65% in size; as to activity change, negative = inhibition: % is scaled to controls: 0 for no effect and ±100 for the full control effect
- particulars: recombinant GPX4, GR-coupled NADPH fluorescence, 15 min; series mostly up to 27.8 µM
Inconclusive results are not listed. Calls of active or inactive are those of the source. Calls follow the shape of the dose curve; as a rule, active = well fitted inhibition curve with a large enough effect; inconclusive = small, poorly fitted or top-dose-only effect; inactive = flat fitted curve, though single readings scatter.
measure: activity change, negative = inhibition

{"molecule": "CC1=C2C3OC(=O)C(C)C3(O)CCC2(C)CCC1 (stereo not drawn)", "val": "inactive"}
{"molecule": "C[C@H]1CC[C@@]2(OC1)O[C@H]1CC3C4CC[C@H]5C[C@@H](O[C@@H]6O[C@H](CO)[C@H](O[C@@H]7O[C@H](CO)[C@@H](O)[C@H](O[C@@H]8OC[C@@H](O)[C@H](O)[C@H]8O)[C@H]7O[C@@H]7O[C@H](CO)[C@@H](O)[C@H](O)[C@H]7O)[C@H](O)[C@H]6O)[C@H](O)C[C@]5(C)C4=CC(=O)[C@]3(C)[C@H]1[C@@H]2C (stereo partly drawn)", "val": "inactive"}
{"molecule": "CC(=O)OCC1=C[C@@H]2OC(=O)C3=CO[C@@H](O[C@@H]4O[C@H](CO)[C@@H](O)[C@H](O)[C@H]4O)[C@H]1[C@@H]32", "val": "inactive"}

====

- Tested on: CAOV3
- protocolNotes: Primary qHTS to identify gynecologic anti-cancer compounds using libraries of approved drugs and bioactive compounds (AID 1345084); also: % is scaled to controls: 0 for no effect and ±100 for the full control effect; nearly all actives have a fitted effect of over 55% in size
- particulars: Gynecologic cancer cell panel viability, ATPlite luminescence, 48 h; series mostly up to 57.5 µM
- Text: National Center for Advancing Translational Sciences [NCATS] Assay Overview: Chemotherapeutic drug responses vary from cancer to cancer and from patient to patient. […] ATPlite is a luminescence based assay reliant on the conversion of a luciferase substrate to light in the presence of ATP. As a cytotoxic compound will suppress growth and decrease the number of cells, the concentration of ATP will decrease, and less light signal will be detected in the well. […]
Results filed as inconclusive are left out. Activity calls are given as the source filed them. Calls follow the shape of the dose curve; as a rule, active = well fitted cell-killing curve with a large enough effect; inconclusive = small, poorly fitted or top-dose-only effect, or effect the other way; inactive = flat fitted curve, though single readings scatter.
measure: activity change, negative = cytotoxicity

Example entries and their recorded answers appear below.
{"compound": "CC1=C2C(=O)C=C(CO)C2C2OC(=O)C(CS(=O)(=O)O)C2C(OC(=O)Cc2ccc(O)cc2)C1 (stereo not drawn)", "assayedSystem": "CAOV3", "activity change, negative = cytotoxicity": "inactive"}
{"compound": "O=C(/C=C/c1ccc(O)c(O)c1)O[C@H]1[C@H](OC2CCCCC2O)O[C@H](CO)[C@@H](O)[C@@H]1O (stereo partly drawn)", "assayedSystem": "CAOV3", "activity change, negative = cytotoxicity": "inactive"}
{"compound": "CC(=O)O[C@@H]1[C@H](OC(C)=O)C[C@@]2(C)C(CC[C@@H](C)[C@]23Cc2c(O)cc4c(c2O3)CN([C@@H](CCC(=O)O)C(=O)O)C4=O)C1(C)C (stereo partly drawn)", "assayedSystem": "CAOV3", "activity change, negative = cytotoxicity": "inactive"}
{"compound": "O=C(O)Cc1cn([C@@H]2OC[C@@H](O[C@@H]3O[C@H](CO)[C@@H](O)[C@H](O)[C@H]3O)[C@H](O)[C@H]2O[C@@H]2O[C@H](CO)[C@@H](O)[C@H](O)[C@H]2O)c2ccccc12", "assayedSystem": "CAOV3", "activity change, negative = cytotoxicity": "inactive"}
{"compound": "C/C=C1\\[C@H](O[C@@H]2O[C@H](CO)[C@@H](O)[C@H](O)[C@H]2O)OC=C(C(=O)O)[C@H]1CC(=O)OCCc1ccc(O)cc1", "assayedSystem": "CAOV3", "activity change, negative = cytotoxicity": "inactive"}
{"compound": "C[C@@H]1O[C@@H](O[C@H]2[C@H](O[C@H]3[C@H](O[C@H]4CC[C@@]5(C)C(CC[C@]6(C)C5CC=C5[C@@H]7CC(C)(C)C[C@@H](O)[C@]7(C)CC[C@]56C)[C@@]4(C)CO)O[C@H](C(=O)O)[C@@H](O)[C@@H]3O)O[C@H](CO)[C@H](O)[C@@H]2O)[C@H](O)[C@H](O)[C@H]1O (stereo partly drawn)", "assayedSystem": "CAOV3", "activity change, negative = cytotoxicity": "6.93% [at 11.6 µM] (inactive)"}

**Query** Suppose we examine the compound COC(=O)C1=CO[C@@H](O[C@@H]2O[C@H](CO)[C@@H](O)[C@H](O)[C@H]2O)[C@@H]2C(C)CC(=O)[C@]12O (stereo partly drawn) ; what activity change, negative = cytotoxicity value has been reported?
**Result** inactive

**Query** Suppose we examine the compound "CC(C)(O)/C=C/C(=O)[C@](C)(O)[C@H]1[C@H](O)C[C@@]2(C)[C@@H]3CC=C4[C@@H](C=C(O[C@@H]5O[C@H](CO)[C@@H](O)[C@H](O)[C@H]5O)C(=O)C4(C)C)[C@]3(C)C(=O)C[C@]12C" ; what activity change, negative = cytotoxicity value has been reported?
**Result** inactive

**Query** Suppose we examine the compound "C/C(=C\CO)CC/C=C(\C)C(=O)O[C@@H]1O[C@H](CO)[C@@H](O)[C@H](O)[C@H]1O" ; what activity change, negative = cytotoxicity value has been reported?
**Result** inactive

**Query** Suppose we examine the compound COc1cc(O)cc(C)c1C(=O)OC1C(CO)OC(n2ccc(=O)[nH]c2=O)C1OC(C)=O (stereo not drawn) ; what activity change, negative = cytotoxicity value has been reported?
**Result** inactive

**Query** Suppose we examine the compound "OCC1=C[C@@H](O)[C@@H]2C=CO[C@@H](O[C@@H]3O[C@H](CO)[C@@H](O)[C@H](O)[C@H]3O)[C@H]12" ; what activity change, negative = cytotoxicity value has been reported?
**Result** inactive

**Query** Suppose we examine the compound "Cc1cc(CNC(=O)c2cc(C(=O)NCc3ccc(F)c(C)c3)ncn2)ccc1F" ; what activity change, negative = cytotoxicity value has been reported?
**Result** inactive

**Query** Suppose we examine the compound COC(=O)C1=CO[C@@H](O[C@@H]2O[C@H](CO)[C@@H](O)[C@H](O)[C@H]2O)C2C1CC(O)C2C (stereo partly drawn) ; what activity change, negative = cytotoxicity value has been reported?
**Result** inactive
